Where do these numbers come from? They come from patent US7011816B2.

Test: in vivo
Set-up: species or system nude mice
Conditions: nude, mouse, total radioactivity, Tumor-to-tissue ratio Kidney
*1 amine or outer side, *2 acyl side, *3 side chain or, on linkers, in order; H or OH if unused. Where a SMILES comes first, the peptide text is derived from it. Side-chain parts run from the residue outwards. [ ]: non-standard residue; d: D form. The star is where a group is joined. DOTA = O=C(O)CN1CCN(CC(=O)O)CCN(CC(=O)*)CCN(CC(=O)O)CC1; NH(2-(imidazol-4-yl)ethyl) = c1ncc(CCN*)[nH]1; Suc = O=C(CCC(=O)[*:2])[*:1]
experimental.endpoint: tissue to tissue ratio at 1 h
Answers are plain numbers.

Endpoint output: tissue to tissue ratio at 1 h of NC(=O)[C@H](CCCCNC(=O)CNC(=O)CCC(=O)NCCc1cnc[nH]1)NC(=O)[C@@H](Cc1ccc(O)cc1)NC(=O)[C@H](CCCCNC(=O)CNC(=O)CCC(=O)NCCc1cnc[nH]1)NC(=O)[C@H](Cc1ccccc1)NC(=O)CN1CCN(CC(=O)O)CCN(CC(=O)O)CCN(CC(=O)O)CC1 [Ga-67-IMP 241, metal not drawn] ({DOTA}-FK([Gly-Suc-NH(2-(imidazol-4-yl)ethyl)])[dY]K([Gly-Suc-NH(2-(imidazol-4-yl)ethyl)])-NH2) . Value?
2.3
